Origin of measurements: the NIST ThermoML archive (doi:10.1021/acs.jced.7b00221)

assay: xn = mol fraction of the nth substance listed; details: 288.15 K; 100 kPa; Liquid; Cone and plate viscometry; x1 = 0.6
quantity kind: viscosity (mPa·s)
Numeric only. Scale: mPa·s

CCCCCCCCCCCCCC[P+](CCCCCC)(CCCCCC)CCCCCC.N#Cc1ccc[n-]1 [trihexyl(tetradecyl)phosphonium 2-cyanopyrrolide] + CCCCCC[n+]1ccn(C)c1.O=S(=O)([N-]S(=O)(=O)C(F)(F)F)C(F)(F)F
638
CCCCCCn1cc[n+](C)c1.N#Cc1ccc[n-]1 [1-hexyl-3-methylimidazolium 2-cyanopyrrolide] + CCCCCCCCCCCCCC[P+](CCCCCC)(CCCCCC)CCCCCC.O=S(=O)([N-]S(=O)(=O)C(F)(F)F)C(F)(F)F
612
CCCCCCCC[P+](CC)(CC)CC.O=[N+]([O-])c1cn[n-]c1 [triethyloctylphosphonium 4-nitropyrazolide] + CCCCCCn1cc[n+](C)c1C.O=S(=O)([N-]S(=O)(=O)C(F)(F)F)C(F)(F)F
524

## Input Determine from records and report viscosity for CC(=O)[O-].CCCCCCCCCCCCCC[P+](CCCCCC)(CCCCCC)CCCCCC [trihexyl(tetradecyl)phosphonium acetate] + CCCCCC[n+]1ccn(C)c1.O=S(=O)([N-]S(=O)(=O)C(F)(F)F)C(F)(F)F
## Output 1100

* * *

viscosity for assorted molecules
test: xn = mol fraction of the nth substance listed; settings: 318.15 K; 100 kPa; Liquid; Cone and plate viscometry; x1 = 0.9
Numeric only. Scale: mPa·s

## Input Determine from records and report viscosity for CCCCCCCC[P+](CC)(CC)CC.O=[N+]([O-])c1cn[n-]c1 [triethyloctylphosphonium 4-nitropyrazolide] + CCCCCCn1cc[n+](C)c1C.O=S(=O)([N-]S(=O)(=O)C(F)(F)F)C(F)(F)F
## Output 94

## Input Determine from records and report viscosity for CCCCCCn1cc[n+](C)c1.O=[N+]([O-])c1cn[n-]c1 [1-hexyl-3-methylimidazolium 4-nitropyrazolide] + CCCCCCCCCCCCCC[P+](CCCCCC)(CCCCCC)CCCCCC.O=S(=O)([N-]S(=O)(=O)C(F)(F)F)C(F)(F)F
## Output 113

## Input Determine from records and report viscosity for CCCCCCCCCC[P+](CC)(CC)CC.O=[N+]([O-])c1cn[n-]c1 [decyltriethylphosphonium 4-nitropyrazolide] + CC[P+](CC)(CC)COCCOC.O=S(=O)([N-]S(=O)(=O)C(F)(F)F)C(F)(F)F
## Output 91

* * *

mass density for assorted molecules
experiment: xn = mol fraction of the nth substance listed; conditions: 343.15 K; 100 kPa; Liquid; Vibrating tube method; x1 = 0.25
± gives the expanded uncertainty stated by the source.

Some solved entries appear below for comparison.
CCCCCCn1cc[n+](C)c1C.O=[N+]([O-])c1cn[n-]c1 [1-hexyl-2,3-dimethylimidazolium 4-nitropyrazolide] + CCCCCCCCCCCCCC[P+](CCCCCC)(CCCCCC)CCCCCC.O=S(=O)([N-]S(=O)(=O)C(F)(F)F)C(F)(F)F
1039.5 ± 12 kg/m3
CCCCCCCC[P+](CC)(CC)CC.O=[N+]([O-])c1cn[n-]c1 [triethyloctylphosphonium 4-nitropyrazolide] + CCCCCCn1cc[n+](C)c1C.O=S(=O)([N-]S(=O)(=O)C(F)(F)F)C(F)(F)F
1241.9 ± 12 kg/m3
CCCCCCn1cc[n+](C)c1.O=[N+]([O-])c1cn[n-]c1 [1-hexyl-3-methylimidazolium 4-nitropyrazolide] + CCCCCCCCCCCCCC[P+](CCCCCC)(CCCCCC)CCCCCC.O=S(=O)([N-]S(=O)(=O)C(F)(F)F)C(F)(F)F
1039.4 ± 4 kg/m3

Please examine the following record next.
## Input Determine from records and report mass density for CCCCCCCC[P+](CC)(CC)CC.O=[N+]([O-])c1cn[n-]c1 [triethyloctylphosphonium 4-nitropyrazolide] + CCCCCC[n+]1ccn(C)c1.O=S(=O)([N-]S(=O)(=O)C(F)(F)F)C(F)(F)F
## Output 1247.5 ± 12 kg/m3
